The measurements presented in this section are drawn from ChEMBL document CHEMBL3885881.

# Species on record: Rattus norvegicus
# experiment.description: DrugMatrix - Regimen: Daily Repeat
# Type: toxicity, organism-based, Sprague-Dawley
# Design: regimen Daily Repeat, gender Male, age 6-8 weeks
# measurement.conditions: in vivo, iv, 0 mg/kg, 120 h, tissue Plasma, dose level Control, time 5 day, vehicle 100 % SALINE
quantity.name: CHOLESTEROL (mg/dL)
Report the figure in mg/dL without appending any unit label.

compound	unit.of.measurement	CHOLESTEROL
COc1cccc2c1C(=O)c1c(O)c3c(c(O)c1C2=O)C[C@@](O)(C(=O)CO)C[C@@H]3O[C@H]1C[C@H](N)[C@@H](O)[C@H](C)O1 [EPIRUBICIN]	mg/dL	73.5
CC[C@]1(O)C[C@@H]2CN(CCc3c([nH]c4ccccc34)[C@@](C(=O)OC)(c3cc4c(cc3OC)N(C)[C@H]3[C@@](O)(C(=O)OC)[C@H](OC(C)=O)[C@]5(CC)C=CCN6CC[C@]43[C@@H]65)C2)C1	mg/dL	64.83

The recorded CHOLESTEROL for "CCc1c2c(nc3ccc(OC(=O)N4CCC(N5CCCCC5)CC4)cc13)-c1cc3c(c(=O)n1C2)COC(=O)[C@]3(O)CC" is 73.5

###

# Species on record: Rattus norvegicus
# experiment.description: DrugMatrix - Regimen: Daily Repeat
# Format: toxicity, organism-based, Sprague-Dawley
# Design: regimen Daily Repeat, gender Male, age 6-8 weeks
# measurement.conditions: in vivo, po, 0 mg/kg, 120 h, tissue Plasma, route oral GAVAGE, dose level Control, time 5 day, vehicle .5 % CMC
As shown below, each of these compounds has a reported URIC ACID value.
Number in mg/dL, nothing else.

Below, each entry is followed by its recorded URIC ACID result.
compound	unit.of.measurement	readout.number
CO[C@H]1/C=C/O[C@@]2(C)Oc3c(C)c(O)c4c(c3C2=O)C2=NC3(CCN(CC(C)C)CC3)NC2=C(NC(=O)/C(C)=C\C=C\[C@H](C)[C@H](O)[C@@H](C)[C@@H](O)[C@@H](C)[C@H](OC(C)=O)[C@@H]1C)C4=O	mg/dL	1.67
CC(C)[C@H]1CC[C@H](C(=O)N[C@H](Cc2ccccc2)C(=O)O)CC1 [NATEGLINIDE]	mg/dL	1.48
C[C@](O)(CS(=O)(=O)c1ccc(F)cc1)C(=O)Nc1ccc(C#N)c(C(F)(F)F)c1 [(R)-BICALUTAMIDE]	mg/dL	1.45
C#C[C@]1(O)CC[C@H]2[C@@H]3CCc4cc(OC)ccc4[C@H]3CC[C@@]21C	mg/dL	1.67

# input for lookup
Just so you know, measured URIC ACID for CN1C(=O)COc2c(C(=O)NC3CN4CCC3CC4)cc(Cl)cc21 (stereo not given) came out at 1.68

###

# Species: Rattus norvegicus
# experiment.description: DrugMatrix - Regimen: Daily Repeat
# Format: toxicity, organism-based, Sprague-Dawley
# Parameters: regimen Daily Repeat, gender Male, age 6-8 weeks
# measurement.conditions: in vivo, po, 1500 mg/kg, 72 h, tissue Blood, route oral GAVAGE, dose level High, time 3 day, vehicle .5 % CMC
// reported HEMOGLOBIN for each item listed
Reply numerically in G/DL, unit not repeated.

Consider the following illustrative entries.
molecule	unit.of.measurement	HEMOGLOBIN
CNC(=C[N+](=O)[O-])NCCSCc1ccc(CN(C)C)o1	G/DL	14
O=C(N[C@H](CO)[C@H](O)c1ccc([N+](=O)[O-])cc1)C(Cl)Cl	G/DL	13.67
CO[C@H]1/C=C/O[C@@]2(C)Oc3c(C)c(O)c4c(c3C2=O)C2=NC3(CCN(CC(C)C)CC3)NC2=C(NC(=O)/C(C)=C\C=C\[C@H](C)[C@H](O)[C@@H](C)[C@@H](O)[C@@H](C)[C@H](OC(C)=O)[C@@H]1C)C4=O	G/DL	15.87
Cc1ccc(S(=O)(=O)NC(=O)NN2CC3CCCC3C2)cc1 (configuration not stated) [GLICLAZIDE]	G/DL	15.77
Cc1cc(=O)n(-c2ccccc2)n1C [ANTIPYRINE]	G/DL	14.13
NC(=O)c1cnccn1 [PYRAZINAMIDE]	G/DL	13.37

Now look at this one.
Documented HEMOGLOBIN of "C[C@]1(Cn2ccnn2)[C@H](C(=O)O)N2C(=O)C[C@H]2S1(=O)=O" : 12.83
